Just for reference, ChEMBL document CHEMBL4699574 is where these values come from.

- testSummary: Metabolic stability in human liver microsomes assessed as half life
- Format: ADME, Microsome
resultType: half-life (h)
Only the number, expressed in h, is required.

Look at this molecule and give its reported half-life. COc1cccc2[nH]c(C(=O)N[C@@H](CC(C)C)C(=O)N[C@@H](C[C@@H]3CCNC3=O)C(=O)CO)cc12
1.78

###

- testSummary: AUC in dog at 2 mg/kg, iv
- Type: ADME, organism-based, Canis lupus familiaris
- Design: dose 2 mg/kg
- conditionContext: in vivo
resultType: AUC (ng·h/mL)
Only the number, expressed in ng·h/mL, is required.

Look at this molecule and give its reported AUC. COc1cccc2[nH]c(C(=O)N[C@@H](CC(C)C)C(=O)N[C@@H](C[C@@H]3CCNC3=O)C(=O)CO)cc12
3800

###

- testSummary: Reversible inhibition of SARS coronavirus Urbani 3CL protease(9985 to 10902) using TAMRA-SITSAVLQSGFRKMK(DABCYL)-OH as substrate measured for 10 mins by FRET assay
resultType: IC50
Remember to follow the number with its unit.

Consider the worked cases shown below.
COCC(=O)[C@H](C[C@@H]1CCNC1=O)NC(=O)[C@H](CC(C)(C)C)NC(=O)c1cc2c(OC)cccc2[nH]1
35 nM
CCOCC(=O)[C@H](C[C@@H]1CCNC1=O)NC(=O)[C@H](CC(C)(C)C)NC(=O)c1cc2ccccc2[nH]1
112 nM
COc1cccc2[nH]c(C(=O)N[C@@H](CC(C)(C)C)C(=O)N[C@@H](C[C@@H]3CCNC3=O)C(=O)CO)cc12
7 nM
COCC(=O)[C@H](C[C@@H]1CCNC1=O)NC(=O)[C@H](CC(C)(C)C)NC(=O)[C@H]1CCCO1
1080 nM

# evaluate next
Look at this molecule and give its reported IC50. CCCC[C@H](NC(=O)c1cc2c(OC)cccc2[nH]1)C(=O)N[C@@H](C[C@@H]1CCNC1=O)C(=O)CO
20 nM

###

- Tested on: SARS coronavirus Urbani
- testSummary: Irreversible inhibition of SARS coronavirus Urbani 3CL protease (9985 to 10902) assessed as first order inhibition rate constant (Kobs/I ratio) using TAMRA-SITSAVLQSGFRKMK(DABCYL)-OH as substrate measured for 10 mins by FRET assay
K by entry:
Only the number, expressed in M⁻¹ s⁻¹, is required.

Consider the worked cases shown below.
COc1cccc2[nH]c(C(=O)N[C@@H](CC(C)C)C(=O)N[C@@H](C[C@@H]3CCNC3=O)C(=O)CCl)cc12
283000
COc1cccc2[nH]c(C(=O)N[C@@H](CC(C)C)C(=O)N[C@@H](C[C@@H]3CCNC3=O)C(=O)COC(=O)c3c(F)cccc3F)cc12
12800
COc1cccc2[nH]c(C(=O)N[C@@H](CC(C)C)C(=O)N[C@@H](C[C@@H]3CCNC3=O)C(=O)COC(=O)c3ccc(Cl)cc3O)cc12
11500

# evaluate next
Look at this compound and give its reported K. CC(C)C[C@H](NC(=O)c1nc2ccccc2[nH]1)C(=O)N[C@@H](C[C@@H]1CCNC1=O)C(=O)COC(=O)c1c(Cl)cccc1Cl
30300

###

- testSummary: Metabolic stability in human plasma assessed as half-life at 1 uM incubated for 60 mins by LC/MS analysis
- Type: ADME, cell-free
resultType: half-life at 1 µM

Look at this molecule and give its reported half-life at 1 µM. COc1cccc2[nH]c(C(=O)N[C@@H](CC(C)C)C(=O)N[C@@H](C[C@@H]3CCNC3=O)C(=O)COC(=O)c3c(Cl)cccc3Cl)cc12
> 4 h

###

- Test system: SARS coronavirus Urbani
- testSummary: Irreversible inhibition of SARS coronavirus Urbani 3CL protease (9985 to 10902) assessed as first order inhibition rate constant (Kobs/I ratio) using TAMRA-SITSAVLQSGFRKMK(DABCYL)-OH as substrate measured for 10 mins by FRET assay
K by entry:
Only the number, expressed in M⁻¹ s⁻¹, is required.

COc1cccc2[nH]c(C(=O)N[C@@H](CC(C)C)C(=O)N[C@@H](C[C@@H]3CCNC3=O)C(=O)COC(=O)c3c(Cl)cccc3Cl)cc12
63000
CC(C)C[C@H](NC(=O)[C@H]1CCCO1)C(=O)N[C@@H](C[C@@H]1CCNC1=O)C(=O)COC(=O)c1c(Cl)cccc1Cl
5830

Look at this compound and give its reported K. COc1cccc2[nH]c(C(=O)N[C@@H](CC(C)C)C(=O)N[C@@H](C[C@@H]3CCNC3=O)C(=O)COC(=O)c3ccc(C#N)cc3F)cc12
13300

###

- testTarget: Cathepsin B (Homo sapiens, UniProt P07858)
resultType: IC50 (nM)
Only the number, expressed in nM, is required.

Hello, I am looking for reported IC50 with Cathepsin B (Homo sapiens, UniProt P07858) for COc1cccc2[nH]c(C(=O)N[C@@H](CC(C)C)C(=O)N[C@@H](C[C@@H]3CCNC3=O)C(=O)CO)cc12 . Could you help?
1300

###

- testSummary: Cytotoxicity against human MRC5 cells assessed as reduction in cell viability incubated for 4 days by XTT dye based assay
- conditionContext: time 4 day
resultType: CC50 at 96 h

Look at this molecule and give its reported CC50 at 96 h. COc1cccc2[nH]c(C(=O)N[C@@H](CC(C)C)C(=O)N[C@@H](C[C@@H]3CCNC3=O)C(=O)CO)cc12
> 40 µM

###

- Test system: SARS-CoV
- testSummary: Antiviral activity against SARS COV-1 infected in monkey vero 76 cells assessed as reduction in virus-induced cytopathic effect measured after 66 hrs by neutral red method or cell titer glo-based luminescence assay
- Type: functional, organism-based
- conditionContext: Severe acute respiratory syndrome-related coronavirus
EC50 by entry:
Only the number, expressed in µM, is required.

Consider the worked cases shown below.
COCC(=O)[C@H](C[C@@H]1CCNC1=O)NC(=O)[C@H](CC(C)(C)C)NC(=O)c1cc2ccccc2[nH]1
46
CC(C)(C)C[C@H](NC(=O)c1cc2ccccc2[nH]1)C(=O)N[C@@H](C[C@@H]1CCNC1=O)C(=O)CO
17

Hello, I am looking for reported EC50 with SARS-CoV for CC(C)(C)C[C@H](NC(=O)[C@H]1CCCO1)C(=O)N[C@@H](C[C@@H]1CCNC1=O)C(=O)CO . Could you help?
33

Hello, I am looking for reported EC50 with SARS-CoV for COCC(=O)[C@H](C[C@@H]1CCNC1=O)NC(=O)[C@H](CC(C)(C)C)NC(=O)c1cc2c(OC)cccc2[nH]1 . Could you help?
32

Hello, I am looking for reported EC50 with SARS-CoV for CC(C)C[C@H](NC(=O)c1cc2ccccc2[nH]1)C(=O)N[C@@H](C[C@@H]1CCNC1=O)C(=O)CO . Could you help?
20

Hello, I am looking for reported EC50 with SARS-CoV for COCC(=O)[C@H](C[C@@H]1CCNC1=O)NC(=O)[C@H](CC(C)C)NC(=O)c1cc2c(OC)cccc2[nH]1 . Could you help?
31

Hello, I am looking for reported EC50 with SARS-CoV for COc1cccc2[nH]c(C(=O)N[C@@H](Cc3ccccc3)C(=O)N[C@@H](C[C@@H]3CCNC3=O)C(=O)CO)cc12 . Could you help?
47

###

- testTarget: Neutrophil elastase (Homo sapiens, UniProt P08246)
- Sequence (P08246 whole entry): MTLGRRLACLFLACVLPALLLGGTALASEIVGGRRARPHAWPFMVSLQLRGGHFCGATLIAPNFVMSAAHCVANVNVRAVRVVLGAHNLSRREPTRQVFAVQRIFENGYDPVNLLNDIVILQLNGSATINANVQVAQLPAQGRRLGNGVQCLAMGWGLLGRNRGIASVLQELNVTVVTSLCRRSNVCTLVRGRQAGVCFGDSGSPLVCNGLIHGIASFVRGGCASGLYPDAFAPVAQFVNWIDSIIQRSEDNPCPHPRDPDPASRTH
- testSummary: Inhibition of human leukocyte elastase
pIC50: −log10 of the molar value.
resultType: pIC50

Look at this molecule and give its reported pIC50. COc1cccc2[nH]c(C(=O)N[C@@H](CC(C)C)C(=O)N[C@@H](C[C@@H]3CCNC3=O)C(=O)CO)cc12
< 5.00

###

- testSummary: Inhibition of SARS-CoV-2 3CL protease using DABCYLKTSAVLQ-SGFRKME-EDANS as peptide substrate in presence of PF-00835231 inhibitor incubated for 60 mins by FRET assay
- Set-up: species or system Severe acute respiratory syndrome coronavirus 2
resultType: pIC50
pIC50 is defined as minus the log10 of a concentration measured in mol/L.

Look at this compound and give its reported pIC50. COc1cccc2[nH]c(C(=O)N[C@@H](CC(C)C)C(=O)N[C@@H](C[C@@H]3CCNC3=O)C(=O)CO)cc12 [PF-00835231]
9.57

###

- testSummary: Aqueous solubility of compound in 2.5% w/v SBECD, pH 7.4 5 mM phosphate buffer, made isotonic with 4.25% dextrose formulation
- Format: physicochemical
- conditionContext: 2.5% w/v SBECD in phosphate buffer, dose 4.6 mg/ml
resultType: solubility (µg/mL)
Only the number, expressed in µg/mL, is required.

Look at this compound and give its reported solubility. COc1cccc2[nH]c(C(=O)N[C@@H](CC(C)C)C(=O)N[C@@H](C[C@@H]3CCNC3=O)C(=O)CO)cc12
4600

###

- testTarget: Cathepsin D (Homo sapiens)
- Sequence (P07339 65-162 limits assumed): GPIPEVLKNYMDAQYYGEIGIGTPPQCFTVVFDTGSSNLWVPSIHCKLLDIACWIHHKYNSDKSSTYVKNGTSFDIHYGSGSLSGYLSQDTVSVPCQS
- Sequence (P07339 169-412 limits assumed): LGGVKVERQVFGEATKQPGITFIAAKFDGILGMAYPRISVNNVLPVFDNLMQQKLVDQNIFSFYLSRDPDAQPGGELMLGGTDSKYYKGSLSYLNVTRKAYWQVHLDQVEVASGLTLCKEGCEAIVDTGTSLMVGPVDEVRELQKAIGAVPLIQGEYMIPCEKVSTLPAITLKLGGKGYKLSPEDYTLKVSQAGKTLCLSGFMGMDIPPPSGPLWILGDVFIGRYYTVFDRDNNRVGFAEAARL
- testSummary: Inhibition of human cathepsin D at 10 uM relative to control
resultType: inhibition at 10 µM (%)
Only the number, expressed in %, is required.

Hello, I am looking for reported inhibition at 10 µM with Cathepsin D (Homo sapiens) for COc1cccc2[nH]c(C(=O)N[C@@H](CC(C)C)C(=O)N[C@@H](C[C@@H]3CCNC3=O)C(=O)CO)cc12 [PF-00835231] . Could you help?
3
